B1: Subtilisin-chymotrypsin inhibitor-2A, P01053 (parent)
chain: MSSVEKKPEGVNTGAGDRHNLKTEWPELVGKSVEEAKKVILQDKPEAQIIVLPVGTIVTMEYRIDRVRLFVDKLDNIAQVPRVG

Variants of: B1
Conditions: Hordeum vulgare; pH 6.25; 25 °C; GdnHCl; Fluorescence; MES 50 mM; reversible: yes; structure 2CI2; whole UniProt chain shown
Assign true to entries whose ddG of mutation (higher = less stable) meets or exceeds 0.8 kcal/mol; assign false to the rest.

[ask] # bool: ddG of mutation (higher = less stable) of "L52A" >= 0.8 kcal/mol
[reply] true

[ask] Repeat for the following variant: "V58A"
[reply] false

[ask] Repeat for the following variant: "E34N"
[reply] false

[ask] Repeat for the following variant: "P53A"
[reply] false

[ask] Repeat for the following variant: E34A E35A
[reply] false

[ask] Repeat for the following variant: "D72A"
[reply] true

[ask] Repeat for the following variant: "P45A"
[reply] true

[ask] Repeat for the following variant: "K38A"
[reply] true

[ask] Repeat for the following variant: S32A E34A E35A
[reply] false

[ask] Repeat for the following variant: "K22A"
[reply] true
